- Tested on: HIV-1 vectors (wild-type)
- Assay type: cell-based
- condition.parameters: read-out: EC50, relative infectivity of HIV-1 vectors
property.measured: pEC50
By convention, pEC50 is the negative base-10 log of a molar concentration.

Looking up "C[C@]1(CO)O[C@@H](n2cnc3c(N)ncnc32)C[C@@H]1O" , I see its pEC50 listed as 7.32
